Catalogue of IC50 values
Biological target: CFTR channel in human colonic T84 cells (Homo sapiens)
Construct: results in the phosphorylation and opening of CFTR anion channels; host or cells: human colonic T84 cells
Sequence (P13569 whole entry): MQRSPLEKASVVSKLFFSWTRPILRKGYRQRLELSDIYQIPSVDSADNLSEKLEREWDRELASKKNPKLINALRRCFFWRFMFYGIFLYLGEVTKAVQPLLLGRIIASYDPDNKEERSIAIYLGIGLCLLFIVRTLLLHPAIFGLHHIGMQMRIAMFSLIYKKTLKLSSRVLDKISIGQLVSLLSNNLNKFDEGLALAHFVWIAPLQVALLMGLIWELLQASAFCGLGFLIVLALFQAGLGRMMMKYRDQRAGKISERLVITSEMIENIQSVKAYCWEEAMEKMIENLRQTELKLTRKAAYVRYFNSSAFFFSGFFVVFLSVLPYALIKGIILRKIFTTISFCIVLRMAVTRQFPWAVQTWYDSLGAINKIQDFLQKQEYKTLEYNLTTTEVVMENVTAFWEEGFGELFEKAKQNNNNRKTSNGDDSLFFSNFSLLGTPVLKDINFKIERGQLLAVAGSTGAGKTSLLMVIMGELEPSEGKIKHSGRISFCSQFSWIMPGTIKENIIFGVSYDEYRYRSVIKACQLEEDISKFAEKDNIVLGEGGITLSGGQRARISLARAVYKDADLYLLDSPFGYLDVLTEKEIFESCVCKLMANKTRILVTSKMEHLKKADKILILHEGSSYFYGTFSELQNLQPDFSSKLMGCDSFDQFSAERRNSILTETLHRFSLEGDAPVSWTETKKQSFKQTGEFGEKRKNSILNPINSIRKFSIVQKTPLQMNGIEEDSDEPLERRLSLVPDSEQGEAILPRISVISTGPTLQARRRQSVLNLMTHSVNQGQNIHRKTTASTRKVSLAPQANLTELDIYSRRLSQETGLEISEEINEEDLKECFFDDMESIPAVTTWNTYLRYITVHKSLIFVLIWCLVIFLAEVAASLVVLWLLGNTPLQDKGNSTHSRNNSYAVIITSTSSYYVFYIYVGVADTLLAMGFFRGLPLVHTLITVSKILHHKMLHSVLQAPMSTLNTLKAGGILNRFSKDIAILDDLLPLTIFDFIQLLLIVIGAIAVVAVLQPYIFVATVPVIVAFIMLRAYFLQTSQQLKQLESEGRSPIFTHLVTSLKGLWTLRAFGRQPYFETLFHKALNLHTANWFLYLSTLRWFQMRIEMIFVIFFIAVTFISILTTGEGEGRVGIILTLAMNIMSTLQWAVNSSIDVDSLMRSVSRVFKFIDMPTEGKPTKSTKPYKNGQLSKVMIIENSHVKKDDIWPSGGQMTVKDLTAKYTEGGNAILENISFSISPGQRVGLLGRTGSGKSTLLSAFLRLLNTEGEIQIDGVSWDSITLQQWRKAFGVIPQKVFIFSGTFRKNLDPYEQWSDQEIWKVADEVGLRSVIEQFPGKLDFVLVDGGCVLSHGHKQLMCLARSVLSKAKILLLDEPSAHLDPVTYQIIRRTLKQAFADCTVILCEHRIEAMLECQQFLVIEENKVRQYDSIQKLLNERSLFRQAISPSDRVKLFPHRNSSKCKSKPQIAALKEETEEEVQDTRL
Assay: T84 assay (FLIPR membrane potential dye, forskolin/IBMX-stimulated CFTR)
Type: cell-based
Settings: average of at least 2 runs unless annotated n = 1

>  <Substance Smiles>
Cc1cc(Br)c(OCc2ncc(-c3cc(Br)c(O)c(Br)c3)nn2)c2c1CCC2

>  <IC50>
14.3 µM

$$$$
>  <Substance Smiles>
CN(Cc1ccc(COc2ncc(-c3cc(Cl)c(O)c(Cl)c3)nn2)cc1)Cc1ccc(-c2cncnc2)cc1

>  <IC50>
2.99 µM

$$$$
>  <Substance Smiles>
Oc1c(Br)cc(-c2cnc(Oc3ccc(Cl)c(Cl)c3)nn2)cc1Br

>  <IC50>
2.12 µM

$$$$
>  <Substance Smiles>
Oc1c(Cl)cc(-c2cnc(OCc3ccc(CN4CCc5ccc(Br)cc5C4)cc3)nn2)cc1Cl

>  <IC50>
3.54 µM

$$$$
>  <Substance Smiles>
Oc1c(Cl)cc(-c2cnc(OCc3cccc4ccccc34)nn2)cc1Cl

>  <IC50>
1.89 µM

$$$$
>  <Substance Smiles>
O=C(c1cccc(C(F)(F)F)c1)N1CCN(Cc2cc(Cl)ccc2OCc2ncc(-c3cc(Br)c(O)c(Br)c3)nn2)CC1

>  <IC50>
5.44 µM

$$$$
>  <Substance Smiles>
CN(Cc1ccc(COc2ncc(-c3cc(Cl)c(O)c(Cl)c3)nn2)cc1)Cc1ccc(Oc2ccccn2)cc1

>  <IC50>
3.92 µM

$$$$
>  <Substance Smiles>
Oc1c(Br)cc(-c2cnc(OCc3ccc(Br)cc3)nn2)cc1Br

>  <IC50>
3.02 µM

$$$$
